Reported GI50 values are given for each entry in this list.
Test system: human lymphoma cell line Raji
Assay: Inhibition of cell proliferation (GI50), Raji
Format: cell-based
Details: Homo sapiens; Raji cells, 48 h, CellTiter-Glo
Where a name gives a salt, the structure may show the parent alone.
Just the number please, in nM, no unit attached.

See these solved cases before continuing.
INSERT INTO assay_data (compound, value_reported) VALUES
  ('Clc1ccccc1-c1nnc2n1N=C(c1ccc3c(c1)OCO3)CS2', 426),
  ('COc1ccc(C2=Nn3c(nnc3-c3ccc(Cl)cc3Cl)SC2)cc1OC', 90),
  ('COc1ccc(-c2nnc3n2N=C(c2ccc(C)cc2)CS3)cc1OC [Example 14, hydrobromide]', 838),
  ('COc1ccccc1-c1nnc2n1N=C(c1ccc(Br)cc1)CS2', 299),
  ('COc1cc(OC)cc(-c2nnc3n2N=C(c2ccc(C)cc2)CS3)c1 [Example 12, hydrochloride]', 15);

Which GI50 value belongs to COc1ccc(C2=Nn3c(nnc3-c3cccc(Cl)c3)SC2)cc1 ?
89

// query: COc1cc(-c2nnc3n2N=C(c2ccc4c(c2)OCO4)CS3)cc(OC)c1OC
41

* * *

Reported GI50 values are given for each entry in this list.
Test system: human lymphoma cell line Raji
Test: Inhibition of cell proliferation (GI50), Raji
Type: cell-based
Conditions: Homo sapiens; Raji cells, 48 h, CellTiter-Glo
Where a name gives a salt, the structure may show the parent alone.
Just the number please, in nM, no unit attached.

See these solved cases before continuing.
INSERT INTO assay_data (compound, value_reported) VALUES
  ('CCN(CC)c1ccc(C2=Nn3c(nnc3-c3cc(OC)cc(OC)c3)SC2)cc1 [Example 26]', 17),
  ('COc1ccccc1-c1nnc2n1N=C(c1ccc(O)cc1)CS2 [Example 7, hydrobromide]', 1000),
  ('c1cc2c(cc1C1=Nn3c(nnc3-c3n[nH]c4c3CCC4)SC1)OCO2 [Example W2]', 3000),
  ('COc1ccc(C2=Nn3c(nnc3-c3ccc(C)cc3)SC2)cc1 [Example U2]', 730),
  ('COc1ccc(C2=Nn3c(nnc3-c3ccc(Cl)cc3)SC2)cc1 [D]', 1500),
  ('COc1ccccc1-c1nnc2n1N=C(c1ccc(OCCO)cc1)CS2 [Example 10]', 746),
  ('COc1ccc(C2=Nn3c(nnc3-c3cccc(OC)c3)SC2)cc1 [Example X]', 62),
  ('COc1ccc(C2=Nn3c(nnc3-c3cccc(Br)c3)SC2)cc1 [Example I2]', 176);

# input for lookup
Which GI50 value belongs to COc1ccc(C2=Nn3c(nnc3-c3ccccc3OC)SC2)cc1OC [Example K1] ?
39

* * *

Tested on: human breast cancer cell line T-47D
Experiment: Caspase cascade activation (EC50), T-47D
Type: cell-based
Details: Homo sapiens; T47D cells; caspase cascade activation; read-out: caspase potency (EC50) T47D
Where a name gives a salt, the structure may show the parent alone.
Reported EC50 values are given for each entry in this list.
Just the number please, in nM, no unit attached.

Which EC50 value belongs to Cc1ccc(C2=Nn3c(nnc3-c3ccccc3C)SC2)cc1N [Example 61] ?
330

// query: COc1cccc(-c2nnc3n2N=C(c2ccc(Br)cc2)CS3)c1 [Example F2]
5400

// query: COc1ccc(-c2nnc3n2N=C(c2ccc4c(c2)OCO4)CS3)cc1OC [Example O1]
542

// query: Oc1ccc(C2=Nn3c(nnc3-c3ccc(Cl)cc3)SC2)cc1 [Example 6, hydrobromide]
855

// query: COc1ccc(C2=Nn3c(nnc3-c3ccc(Cl)cc3)SC2)cc1OC [E]
1880

// query: Cc1ccc(C2=Nn3c(nnc3-c3cccn3C)SC2)cc1 [Example 94]
2630

// query: COc1ccccc1-c1nnc2n1N=C(c1ccc(N)cc1)CS2 [Example 75]
238

// query: COc1ccccc1-c1nnc2n1N=C(c1ccc(Cl)c(N)c1)CS2 [Example 59]
102

// query: COc1ccccc1-c1nnc2n1N=C(c1ccc(OCCO)cc1)CS2 [Example 10]
300

// query: COc1cc(-c2nnc3n2N=C(c2ccc4c(c2)OCO4)CS3)cc(OC)c1OC [Example M1]
61

// query: COc1ccc(C2=Nn3c(nnc3-c3ccccc3Cl)SC2)cc1OC [N]
2400

// query: CCOc1ccc(C2=Nn3c(nnc3-c3cccc(OC)c3)SC2)cc1 [Z]
2810

* * *

Reported pEC50 values are given for each entry in this list.
System: human breast cancer cell line T-47D
Assay: Caspase cascade activation (EC50), T-47D
Type: cell-based
Conditions: Homo sapiens; T47D cells; caspase cascade activation; read-out: caspase potency (EC50) T47D
Reminder that pEC50 means the negative base-10 logarithm of the concentration expressed in mol/L.

See these solved cases before continuing.
INSERT INTO results (compound, value_reported) VALUES
  ('CCOc1ccc(C2=Nn3c(nnc3-c3ccc(Cl)cc3Cl)SC2)cc1 [Example H1]', 6.26),
  ('COc1ccc(C2=Nn3c(nnc3-c3ccccc3OC)SC2)cc1OC [Example K1]', 6.30),
  ('CCOc1ccc(C2=Nn3c(nnc3-c3cccc(Cl)c3)SC2)cc1 [Example E2]', 5.96);

human breast cancer cell line T-47D / pEC50 / COc1cccc(C2=Nn3c(nnc3-c3ccc(Cl)cc3Cl)SC2)c1 [Example O3] : value?
5.89

* * *

Reported GI50 values are given for each entry in this list.
System: human lymphoma cell line Raji
Experiment: Inhibition of cell proliferation (GI50), Raji
Format: cell-based
Conditions: Homo sapiens; Raji cells, 48 h, CellTiter-Glo
Counter-ions that a name gives are not always drawn.
Just the number please, in nM, no unit attached.

See these solved cases before continuing.
INSERT INTO measurements (compound, test_readout, value_reported) VALUES
  ('CCOc1ccc(C2=Nn3c(nnc3-c3ccccc3C)SC2)cc1', 'GI50', 62),
  ('CCOc1cccc(-c2nnc3n2N=C(c2ccc(O)c(O)c2)CS3)c1', 'GI50', 2890),
  ('COc1cc(-c2nnc3n2N=C(c2ccc(C)cc2)CS3)cc(OC)c1O [Example 13, hydrobromide]', 'GI50', 97),
  ('COc1ccccc1-c1nnc2n1N=C(c1ccc(N3CCCC3)cc1)CS2', 'GI50', 15),
  ('COc1ccc(C2=Nn3c(nnc3-c3ccccc3C)SC2)cc1', 'GI50', 164);

Which GI50 value belongs to Cc1ccccc1-c1nnc2n1N=C(c1ccc3c(c1)OCO3)CS2 ?
2220

// query: CCN(CC)c1ccc(C2=Nn3c(nnc3-c3ccccc3OC)SC2)cc1
2

// query: CCOc1ccc(C2=Nn3c(nnc3-c3ccccc3Br)SC2)cc1
103

// query: CCOc1ccc(C2=Nn3c(nnc3-c3ccc(C)cc3)SC2)cc1
133

* * *

System: human breast cancer cell line T-47D
Assay: Caspase cascade activation (EC50), T-47D
Format: cell-based
Conditions: Homo sapiens; T47D cells; caspase cascade activation; read-out: caspase potency (EC50) T47D
Reported log10 of EC50 values are given for each entry in this list.
In plain terms, each number is the log10 of measured EC50 in nM.

INSERT INTO assay_data (compound, value_reported) VALUES
  ('COc1cc(-c2nnc3n2N=C(c2ccc(Cl)cc2)CS3)cc(OC)c1OC [Example W1]', 2.44),
  ('COC(=O)c1ccc(C2=Nn3c(nnc3-c3ccccc3OC)SC2)cc1 [Example 85]', 2.44),
  ('COc1ccc(C2=Nn3c(nnc3-c3ccc(Cl)cc3Cl)SC2)cc1OC [Example G1]', 2.70);

Which log10 of EC50 value belongs to COc1ccc(C2=Nn3c(nnc3-c3ccccc3C)SC2)cc1OC [K] ?
3.71

// query: CCOc1ccc(C2=Nn3c(nnc3-c3ccccc3Cl)SC2)cc1 [O]
3.13

// query: COc1cc(-c2nnc3n2N=C(c2cccc(Br)c2)CS3)cc(OC)c1OC [Example X1]
3.42

* * *

Test system: human breast cancer cell line T-47D
Assay: Caspase cascade activation (EC50), T-47D
Format: cell-based
Details: Homo sapiens; T47D cells; caspase cascade activation; read-out: caspase potency (EC50) T47D
Mark true (1) only for EC50 values smaller than 500 nM; exact matches and larger values are false (0).

INSERT INTO assay_data (molecule, category) VALUES
  ('c1ccc(-c2nnc3n2N=C(c2ccc4c(c2)OCO4)CS3)cc1 [Example P1]', 'false (0)'),
  ('COc1ccc(C2=Nn3c(nnc3-c3cccc(OC(C)C)c3)SC2)cc1', 'false (0)'),
  ('COc1ccc(C2=Nn3c(nnc3-c3cc(OC)c(OC)c(OC)c3)SC2)cc1', 'false (0)'),
  ('CCc1nnc2n1N=C(c1ccc(OC)cc1)CS2', 'false (0)'),
  ('CCN(CC)c1ccc(C2=Nn3c(nnc3-c3ccc(OC)cc3OC)SC2)cc1', 'true (1)'),
  ('COc1ccccc1-c1nnc2n1N=C(c1ccc(C(F)(F)F)cc1)CS2', 'false (0)'),
  ('COc1ccccc1-c1nnc2n1N=C(c1ccc(C)c([N+](=O)[O-])c1)CS2', 'false (0)'),
  ('Cc1ccc(C2=Nn3c(nnc3-c3ccc[nH]3)SC2)cc1', 'false (0)'),
  ('COc1ccccc1-c1nnc2n1N=C(c1ccc([N+](=O)[O-])c(OC)c1)CS2', 'false (0)'),
  ('CCOc1ccc(C2=Nn3c(nnc3-c3cc(OC)c(OC)c(OC)c3)SC2)cc1', 'false (0)');

Please state whether EC50 is below 500 nM for COc1cccc(-c2nnc3n2N=C(c2ccc(O)c(O)c2)CS3)c1 [Example D2]
false (0)

// query: COc1cccc(-c2nnc3n2N=C(c2ccc(OC)c(OC)c2)CS3)c1
false (0)

// query: CC(C)Oc1cccc(-c2nnc3n2N=C(c2ccc4c(c2)OCO4)CS3)c1
false (0)

// query: COc1ccccc1-c1nnc2n1N=C(c1ccc(OC(F)(F)F)cc1)CS2
false (0)

// query: CCOc1ccc(C2=Nn3c(nnc3-c3ccccc3OC)SC2)cc1
true (1)
